biological target: Induced myeloid leukemia cell differentiation protein Mcl-1 (Homo sapiens) (UniProt Q07820); test: disruptors of Mcl-1 and Bid BH3 peptide – biochemical, TR-FRET, 1536-well, primary screen (AID 1021); conditions: TR-FRET Mcl-1/Bid-Dy647 peptide binding, at 21.7 µM;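 also: His-tagged Mcl-1 with europium anti-His antibody binding Bid BH3 peptide; 0% = Mcl-1 plus peptide wells and 100% = peptide-only wells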
Sequence (Q07820 whole entry, looked up): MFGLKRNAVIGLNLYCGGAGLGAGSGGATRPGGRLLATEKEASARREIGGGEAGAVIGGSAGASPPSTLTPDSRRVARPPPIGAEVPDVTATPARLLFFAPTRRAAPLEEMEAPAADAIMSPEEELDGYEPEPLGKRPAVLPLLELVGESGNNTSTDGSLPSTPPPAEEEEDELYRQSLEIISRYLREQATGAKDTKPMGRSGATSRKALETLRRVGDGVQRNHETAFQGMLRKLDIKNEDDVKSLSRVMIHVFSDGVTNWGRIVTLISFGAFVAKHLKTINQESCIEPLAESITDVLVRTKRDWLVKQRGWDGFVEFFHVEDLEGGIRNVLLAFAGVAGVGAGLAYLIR
Out of some 220,000 compounds screened, about 2,100 (0.95%) were called active.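 The calls were made as follows: active = compounds that cut the binding signal by more than half at the single screening dose; inactive = the rest.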 This is one part of a sample in which actives are shown more often than they occur.
Parameter call: string, one of label 1 for active, label 0 for inactive

Here's what some known entries look like.
molecule: CC1=C2C(=O)C3C(CC=C4CC(OC5OC(O)C(O)C(O)C5CO)CCC43C)C2CCC12OC1CC(C)CNC1C2C (stereo unspecified)
assigned.category: label 0
//
molecule: CCOc1ccc(CN(CCCl)CCCl)cc1C(=O)OC
assigned.category: label 1
//
molecule: CN1CCN(Cc2ccc(OC(F)(F)F)cc2)CC1
assigned.category: label 1
//
molecule: CC(=O)Cc1ccc(OC(C)C)cc1
assigned.category: label 0
//
molecule: COc1ccc(-n2c(O)c(C(C)=Nc3ccc4c(c3)CCC4)c(=O)[nH]c2=O)cc1
assigned.category: label 0
//
molecule: CN1CCN(Cc2ccccc2C(F)(F)F)CC1
assigned.category: label 0
//
molecule: CC1CCCCN1Cc1cccnc1 (stereo unspecified)
assigned.category: label 0
//
molecule: O=C(Cc1ccccc1)N1CCN(C2CCCCCC2)CC1
assigned.category: label 0
//
molecule: COc1ccc(C(=O)C2CCCN(Cc3ccc(C)s3)C2)cc1OC (stereo unspecified)
assigned.category: label 0
//
molecule: O=C1NC(=O)N(c2ccc(F)cc2)C(=O)/C1=C/c1ccc2c(c1)CCCN2Cc1ccccc1
assigned.category: label 1

API: the following record is the query input.
query: Field: outcome | Entry: COc1ccccc1CN1CCN(C(=O)Cc2ccccc2)CC1
result: label 1
